System: primary MM cells from patient bone marrow aspirates
Assay: cells
Conditions: Homo sapiens, 48 h, read-out: EC50 of decrease in MM cell viability ex vivo
ATTRIBUTE MEASURED: EC50

Input COC(=O)C[C@](O)(CCCC(C)(C)O)C(=O)O[C@@H]1C(OC)=C[C@]23CCCN2CCc2cc4c(cc2[C@H]13)OCO4 [omacetaxine, Omacetaxine mepesuccinate] , output reported EC50.
25 to 100 nM
